- Tested on: T-47D cells
- test summary: Caspase cascade activation / induction of apoptosis in T-47D cells (fluorogenic N-(Ac-DEVD)-N'-ethoxycarbonyl-R110 substrate)
- Assay type: cell-based, human
- recorded conditions: Homo sapiens, T47D; Table III; time not given, repeats 24 hr or 48 hr T-47D values of Table I; read-out: Caspase activation (EC50 nM)
Binarize EC50 at 300 nM; below is true, at or above is false.

| compound structure string | subject of test | class label |
| --- | --- | --- |
| Cc1ccc(N(C)c2ncnc3ccccc23)cc1 | T-47D cells | true |
| COc1ccc(Nc2nc(Cl)nc3ccccc23)cc1 | T-47D cells | false |
| COc1ccccc1N(C)c1nc(Cl)nc2ccccc12 | T-47D cells | false |
| Cc1ccc(N(C)c2nc(Cl)nc3ccccc23)cc1 | T-47D cells | true |
| COc1ccc(N(C)c2nc(Cl)nc3ccccc23)cn1 | T-47D cells | true |
| COc1cccc(N(C)c2nc(Cl)nc3ccccc23)c1 | T-47D cells | true |
| COc1ccc(OC)c(Nc2nc(Cl)nc3ccccc23)c1 | T-47D cells | false |
| COc1ccc(N(C)c2nc(Cl)nc3cc(OC)c(OC)cc23)cc1 | T-47D cells | true |
| COc1ccc(N(C)c2ncnc3c2CCCC3)cc1 | T-47D cells | true |
| COc1ccc(OC)c(N(C)c2nc(Cl)nc3ccccc23)c1 | T-47D cells | true |
| COc1ccc(N(C)c2nc(NC/C=C(\C)CCC=C(C)C)nc3ccccc23)cc1 | T-47D cells | true |
| COc1ccc(N(C)c2nc(Cl)nc3ccccc23)c(OC)c1 | T-47D cells | true |
| COc1ccc(N(C)c2nc(N)nc3ccccc23)cc1 | T-47D cells | true |
| COc1ccc(N(C)c2nccc3ccccc23)cc1 | T-47D cells | false |

---

- System: T-47D cells
- test summary: Caspase cascade activation / induction of apoptosis in T-47D cells (fluorogenic N-(Ac-DEVD)-N'-ethoxycarbonyl-R110 substrate)
- Type: cell-based, human
- recorded conditions: Homo sapiens, T47D, 24 h, read-out: T-47D (24 hr) EC50 (nM)
Counter-ions that a name gives are not always drawn.

| compound | unit info | bound type | EC50 |
| --- | --- | --- | --- |
| [2H]c1c([2H])c(N(C)c2nc(C)nc3ccccc23)c([2H])c([2H])c1OC | nM | = | 1 |
| CN(c1ccccc1)c1nc(Cl)nc2ccccc12 | nM | = | 219 |
| COc1ccc(N(C)c2nc(C)nc3ccccc23)cc1 [Example 72, hydrochloride] | nM | = | 2 |
| COc1ccc(N(C)c2nc(Cl)nc3ccccc23)cc1 | nM | = | 2 |
| COc1ccc(N(C)c2nc(C)nc3cc([N+](=O)[O-])ccc23)cc1 | nM | > | 10000 |

---

- Test system: T-47D cells
- test summary: Caspase cascade activation / induction of apoptosis in T-47D cells (fluorogenic N-(Ac-DEVD)-N'-ethoxycarbonyl-R110 substrate)
- Type: cell-based, human
- recorded conditions: Homo sapiens, T47D; T-47D, 24 hr; read-out: T-47D (24 hr) EC50
endpoint name: EC50 (µM)

| compound structure string | endpoint name | unit info | bound type | reading |
| --- | --- | --- | --- | --- |
| COc1ccc(N(C)c2nc(C)nc3ccccc23)c(F)c1 | EC50 | µM | = | 0.004 |
| COc1ccc(N(c2nc(C)nc3ccccc23)C(F)F)cc1 | EC50 | µM | = | 4.66 |
| COc1ccc(N(C)c2nc(NCCN3CCOCC3)nc3ccccc23)cc1 | EC50 | µM | = | 1.34 |
| COc1ccc(Nc2nc(Cl)nc3ccccc23)cn1 | EC50 | µM | > | 10 |
| COc1ccc(N(C)c2nc(N=[N+]=[N-])nc3ccccc23)cc1 | EC50 | µM | = | 0.03 |
| COc1ccc(N(C)c2nc(NCCO)nc3ccccc23)cc1 | EC50 | µM | = | 0.008 |
| COc1ccc(N(C)c2nc(C)nc3ccc(N)cc23)cc1 | EC50 | µM | = | 0.007 |
| COc1ccc(OC)c(N(C)c2nc(Cl)nc3ccccc23)c1 | EC50 | µM | = | 0.282 |
| Cc1nc(Nc2ccc(O)cc2)c2ccccc2n1 | EC50 | µM | > | 10 |
| COc1ccc(N(C)c2nc(CO)nc3ccccc23)cc1 | EC50 | µM | = | 0.007 |
| Cc1nc(N(C)c2ccc([N+](=O)[O-])cc2)c2ccccc2n1 | EC50 | µM | = | 0.474 |
| CNc1nc(N(C)c2ccc(OC)cc2)c2ccccc2n1 | EC50 | µM | = | 0.008 |
| C[C@H]1CC[C@@H](Nc2nc(Cl)nc3ccccc23)CC1 | EC50 | µM | > | 10 |
| COc1ccc(N(C)c2nc(N(C)C)nc3ccccc23)cn1 | EC50 | µM | = | 0.058 |
| COc1ccc(N(C)c2nc(C)nc3ccc(N=[N+]=[N-])cc23)cc1 | EC50 | µM | = | 0.032 |
| CN(c1ccccc1)c1nc(N(C)c2ccccc2)c2ccccc2n1 | EC50 | µM | > | 10 |
| Cc1nc(N(C)c2ccc(C(=O)O)cc2)c2ccccc2n1 | EC50 | µM | > | 10 |
| CCOC(=O)c1nc(N(C)c2ccc(OC)cc2)c2ccccc2n1 | EC50 | µM | = | 0.134 |
| Cc1nc(Nc2ccc(OC(C)C)cc2)c2ccccc2n1 | EC50 | µM | = | 5.75 |
| COc1ccc(N(C)c2nc(N)nc3ccccc23)cn1 | EC50 | µM | = | 0.029 |

---

Reported IC50 by item:
- Test system: MCF-7 cells
- test summary: Cytotoxicity (ATP-lite cell viability), MCF-7
- Assay type: cell-based
- recorded conditions: Homo sapiens, MCF7; MCF-7, 72 hours

| compound structure string | IC50, nM |
| --- | --- |
| COc1ccc(N(C)c2nc(Cl)nc3ccccc23)cc1 | 2.9 |
| CC[C@]1(O)C[C@@H]2CN(CCc3c([nH]c4ccccc34)[C@@](C(=O)OC)(c3cc4c(cc3OC)N(C)[C@H]3[C@@](O)(C(=O)OC)[C@H](OC(C)=O)[C@]5(CC)C=CCN6CC[C@]43[C@@H]65)C2)C1 | 0.5 |
| CC(=O)O[C@@]12CO[C@@H]1C[C@H](O)[C@@]1(C)C(=O)[C@H](O)C3=C(C)[C@@H](OC(=O)[C@H](O)[C@@H](NC(=O)OC(C)(C)C)c4ccccc4)C[C@@](O)([C@@H](OC(=O)c4ccccc4)[C@H]21)C3(C)C | 2 |

---

- Test system: P388 cells
- test summary: Cytotoxicity (ATP-lite cell viability), P388
- Assay type: cell-based, murine
- recorded conditions: Mus musculus; P388, 72 hours
Below, each of the molecules is paired with its reported IC50 value.

| compound structure string | subject of test | IC50 [nM] |
| --- | --- | --- |
| CC[C@]1(O)C[C@@H]2CN(CCc3c([nH]c4ccccc34)[C@@](C(=O)OC)(c3cc4c(cc3OC)N(C)[C@H]3[C@@](O)(C(=O)OC)[C@H](OC(C)=O)[C@]5(CC)C=CCN6CC[C@]43[C@@H]65)C2)C1 | P388 cells | 2.6 |
| CC(=O)O[C@@]12CO[C@@H]1C[C@H](O)[C@@]1(C)C(=O)[C@H](O)C3=C(C)[C@@H](OC(=O)[C@H](O)[C@@H](NC(=O)OC(C)(C)C)c4ccccc4)C[C@@](O)([C@@H](OC(=O)c4ccccc4)[C@H]21)C3(C)C | P388 cells | 7 |
| COc1ccc(N(C)c2nc(Cl)nc3ccccc23)cc1 | P388 cells | 1.1 |

---

- Test system: P388 murine leukemia cell line
- test summary: P388 cytotoxicity (ATP-Lite, 72 hours)
- Type: cell-based
- recorded conditions: Mus musculus, P388, 72 hours
Where a name gives a salt, the structure may show the parent alone.
// classify: if (IC50 < 20 nM) Fulfilled else Not fulfilled

| molecule | subject of test | class label |
| --- | --- | --- |
| COc1ccc(N(C)c2nc(OC(C)C)nc3cccc(F)c23)cc1 | P388 murine leukemia cell line | Fulfilled |
| COc1ccc(N(C)c2nc(CN)nc3cccc(F)c23)cc1 | P388 murine leukemia cell line | Fulfilled |
| COc1ccc(N(C)c2nc(C)nc3sccc23)cc1 | P388 murine leukemia cell line | Fulfilled |
| COc1ccc(N(C)c2nc(C)nc3ccc(NS(=O)(=O)c4ccc(OC)cc4)cc23)cc1 | P388 murine leukemia cell line | Not fulfilled |
| COc1ccc(N(C)c2nc(C)nc3ccc(CN)cc23)cc1 | P388 murine leukemia cell line | Not fulfilled |
| Cc1nc(N(C)c2ccc(OC(C)C)cc2)c2cc([N+](=O)[O-])ccc2n1 | P388 murine leukemia cell line | Not fulfilled |
| Cc1nc(N(C)c2ccc(N(C)C(=O)OC(C)(C)C)cc2)c2ccccc2n1 | P388 murine leukemia cell line | Not fulfilled |
| CCOc1ccc(N(C)c2nc(C)nc3ccc([N+](=O)[O-])cc23)cc1 | P388 murine leukemia cell line | Fulfilled |
| COc1ccc(N(C)c2nc(CCN)nc3ccccc23)cc1 | P388 murine leukemia cell line | Not fulfilled |
| COc1c(Cl)cc(N(C)c2nc(CN)nc3ccccc23)cc1Cl [Example 254, bis(hydrochloride)] | P388 murine leukemia cell line | Not fulfilled |
| COc1ccc(N(C)c2nc(C)nc3ccc(N)cc23)c(F)c1 | P388 murine leukemia cell line | Fulfilled |
| COc1ccc(N(C)c2nc(C)nc3c2CCCC3)cc1 | P388 murine leukemia cell line | Fulfilled |
| CCOc1ccc(N(C)c2nc(CN)nc3ccccc23)cc1F | P388 murine leukemia cell line | Fulfilled |
| COc1ccc(N(C)c2nc(NCCN)nc3ccc(OC)cc23)cc1 | P388 murine leukemia cell line | Not fulfilled |
| CCOc1ccc(N(C)c2nc(C)nc3ccccc23)cc1F | P388 murine leukemia cell line | Fulfilled |
| COc1ccc(N(C)c2nc(CN)nc3ccccc23)cc1Cl | P388 murine leukemia cell line | Fulfilled |
| CCOc1ccc(N(C)c2nc(CN)nc3ccccc23)c(F)c1 | P388 murine leukemia cell line | Fulfilled |
| COc1ccc(N(C)c2nc(C)nc3ccc(Br)cc23)cc1 | P388 murine leukemia cell line | Fulfilled |
| COc1ccc(N(C)c2nc(CN)nc3ccccc23)c(F)c1 | P388 murine leukemia cell line | Fulfilled |
| COc1ccc(N(C)c2nc(CNC(=O)c3cccnc3)nc3ccccc23)cc1 | P388 murine leukemia cell line | Not fulfilled |
| COc1ccc(N(C)c2nc(NCCCl)nc3ccccc23)cc1 | P388 murine leukemia cell line | Fulfilled |
| COc1ccc(N(C)c2nc(C)nc3ccc([N+](=O)[O-])cc23)c(F)c1 | P388 murine leukemia cell line | Not fulfilled |
| COc1ccc(N(C)c2nc(CNCCCO)nc3ccccc23)cc1 | P388 murine leukemia cell line | Not fulfilled |
| COc1ccc(N(C)c2nc(CCl)nc3ccccc23)cc1Cl | P388 murine leukemia cell line | Fulfilled |
| COc1ccc(N(C)c2nncc3cc(F)ccc23)cc1 | P388 murine leukemia cell line | Not fulfilled |
| CNc1nc2c(c(N(C)c3ccc(OC)cc3)n1)CCC2 | P388 murine leukemia cell line | Fulfilled |
| CNc1ccc(N(C)c2nc(C)nc3ccc(N)cc23)cc1 | P388 murine leukemia cell line | Not fulfilled |
| COc1ccc(N(C)c2nc(CNC(=O)CCC(=O)O)nc3ccccc23)cc1 | P388 murine leukemia cell line | Not fulfilled |

// provenance: patent US20130029942A1
